target: LHRH (Rattus norvegicus); construct: endogenous in cells; host or cells: rat pituitary cells (own knowledge of the cited Haviv 1989 method); experiment: in vitro test for LHRH antagonist potency (pA2); format: cell-based; conditions: negative logarithm of the antagonist concentration required to shift the response curve produced by the agonist leuprolide to two-fold higher concentration
Non-standard residues stand in square brackets, D forms with d. Residues, ends and D or L forms follow the SMILES beside them. *: point of attachment. Shikimoyl = O=C(C1=C[C@@H](O)[C@@H](O)[C@H](O)C1)*; dPhe(4-Cl) = N[C@H](Cc1ccc(Cl)cc1)C(=O)O; d2Nal = N[C@H](Cc1ccc2ccccc2c1)C(=O)O; NMeY = CN[C@@H](Cc1ccc(O)cc1)C(=O)O; d3Pal = N[C@H](Cc1cccnc1)C(=O)O; Nicotinoyl = O=C(c1cccnc1)*; Sar = CNCC(=O)O
What Kb was measured for each of the following?
One number for each entry, in nM.

# annotated cases, reported Kb shown
>  <compound>
CC(C)C[C@H](NC(=O)[C@@H](CCCCNC(=O)C1=C[C@@H](O)[C@@H](O)[C@H](O)C1)NC(=O)[C@H](Cc1ccc(O)cc1)N(C)C(=O)[C@H](CO)NC(=O)[C@@H](Cc1cccnc1)NC(=O)[C@@H](Cc1ccc(Cl)cc1)NC(=O)[C@@H](Cc1ccc2ccccc2c1)NC(=O)CN(C)C(=O)c1cccnc1)C(=O)N[C@@H](CCCNC(=N)N)C(=O)N1CCC[C@H]1C(=O)N[C@H](C)C(N)=O [Example 14a] (Nicotinoyl-[Sar][d2Nal][dPhe(4-Cl)][d3Pal]S[NMeY][dK](Shikimoyl)LRP[dA]-NH2)

>  <Kb, nM>
0.0132

$$$$
>  <compound>
CC(C)C[C@H](NC(=O)[C@@H](CCCCNC(=O)c1cccnc1)NC(=O)[C@H](Cc1ccc(O)cc1)N(C)C(=O)[C@H](CO)NC(=O)[C@@H](Cc1cccnc1)NC(=O)[C@@H](Cc1ccc(Cl)cc1)NC(=O)[C@@H](Cc1ccc2ccccc2c1)NC(=O)CNC(=O)[C@@H]1CCCO1)C(=O)N[C@@H](CCCCNC(C)C)C(=O)N1CCC[C@@H]1C(=O)N[C@H](C)C(N)=O [Example 88]

>  <Kb, nM>
0.158

$$$$

Pending compound:
# return recorded Kb for input CC[C@H](C)[C@H](NC(=O)[C@@H](CCCCNC(=O)C1=C[C@@H](O)[C@@H](O)[C@H](O)C1)NC(=O)[C@H](Cc1ccc(O)cc1)N(C)C(=O)[C@H](CO)NC(=O)[C@@H](Cc1cccnc1)NC(=O)[C@@H](Cc1ccc(Cl)cc1)NC(=O)[C@@H](Cc1ccc2ccccc2c1)NC(=O)CNC(=O)c1cccnc1)C(=O)N[C@@H](CCCNC(=N)N)C(=O)N1CCC[C@H]1C(=O)N[C@H](C)C(N)=O [Example 23a] (Nicotinoyl-G[d2Nal][dPhe(4-Cl)][d3Pal]S[NMeY][dK](Shikimoyl)IRP[dA]-NH2) 0.0195

----------
Molecular target: LHRH (Rattus norvegicus)
Construct: endogenous in cells; host or cells: rat pituitary cells (own knowledge of the cited Haviv 1989 method)
Sequence (P30969 1-327): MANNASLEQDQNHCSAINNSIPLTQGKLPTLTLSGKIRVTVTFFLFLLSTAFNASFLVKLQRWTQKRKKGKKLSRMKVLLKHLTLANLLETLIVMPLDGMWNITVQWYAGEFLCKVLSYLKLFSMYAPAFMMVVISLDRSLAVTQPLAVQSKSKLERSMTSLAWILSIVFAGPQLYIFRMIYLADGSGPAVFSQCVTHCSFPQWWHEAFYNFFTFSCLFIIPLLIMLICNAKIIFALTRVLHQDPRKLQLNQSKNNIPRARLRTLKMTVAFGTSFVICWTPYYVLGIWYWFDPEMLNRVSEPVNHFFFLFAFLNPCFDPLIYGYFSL
Experiment: in vitro test for LHRH antagonist potency (pA2)
Type: cell-based
Conditions: negative logarithm of the antagonist concentration required to shift the response curve produced by the agonist leuprolide to two-fold higher concentration
Non-standard residues stand in square brackets, D forms with d. Residues, ends and D or L forms follow the SMILES beside them. *: point of attachment. dPhe(4-Cl) = N[C@H](Cc1ccc(Cl)cc1)C(=O)O; d2Nal = N[C@H](Cc1ccc2ccccc2c1)C(=O)O; d(hCit) = NC(=O)NCCCC[C@@H](N)C(=O)O; Lys(iPr) = CC(C)NCCCC[C@H](N)C(=O)O; NMeY = CN[C@@H](Cc1ccc(O)cc1)C(=O)O; d3Pal = N[C@H](Cc1cccnc1)C(=O)O; Nicotinoyl = O=C(c1cccnc1)*; X1 = O=C([C@@H]1CCCO1)*
measured_quantity: Kb
Answer shape: numeric part, then the unit.

# annotated cases, reported Kb shown
>  <molecule>
CC(C)C[C@H](NC(=O)[C@@H](CCCCNC(=O)c1cccnc1)NC(=O)[C@H](Cc1ccc(O)cc1)N(C)C(=O)[C@H](CO)NC(=O)[C@@H](Cc1cccnc1)NC(=O)[C@@H](Cc1ccc(Cl)cc1)NC(=O)[C@@H](Cc1ccc2ccccc2c1)NC(=O)CNC(=O)c1cccnc1)C(=O)N[C@@H](CCCCNC(C)C)C(=O)N1CCC[C@H]1C(=O)N[C@H](C)C(N)=O [Example 2f] (Nicotinoyl-G[d2Nal][dPhe(4-Cl)][d3Pal]S[NMeY][dK](Nicotinoyl)L[Lys(iPr)]P[dA]-NH2)

>  <Kb>
8.91 pM

$$$$
>  <molecule>
CC(C)C[C@H](NC(=O)[C@@H](CCCCNC(=O)NNC(=O)c1cccnc1)NC(=O)[C@H](Cc1ccc(O)cc1)N(C)C(=O)[C@H](CO)NC(=O)[C@@H](Cc1cccnc1)NC(=O)[C@@H](Cc1ccc(Cl)cc1)NC(=O)[C@@H](Cc1ccc2ccccc2c1)NC(=O)CNC(=O)C1CCCO1)C(=O)N[C@@H](CCCCNC(C)C)C(=O)N1CCC[C@H]1C(=O)N[C@H](C)C(N)=O (mixture of isomers)

>  <Kb>
38 pM

$$$$

# return recorded Kb for input CC(C)C[C@H](NC(=O)[C@@H](CCCCNC(N)=O)NC(=O)[C@H](Cc1ccc(O)cc1)NC(=O)[C@H](CO)NC(=O)[C@@H](Cc1cccnc1)NC(=O)[C@@H](Cc1ccc(Cl)cc1)NC(=O)[C@@H](Cc1ccc2ccccc2c1)NC(=O)CNC(=O)[C@@H]1CCCO1)C(=O)N[C@@H](CCCNC(=N)N)C(=O)N1CCC[C@H]1C(=O)N[C@H](C)C(N)=O [Example 95] (X1-G[d2Nal][dPhe(4-Cl)][d3Pal]SY[d(hCit)]LRP[dA]-NH2) 7.59 pM

All values here come from patent US5502035A.
